Data provenance is ChEMBL document CHEMBL4425163.

System: Staphylococcus aureus
Assay: Antibacterial activity against methicillin resistant Staphylococcus aureus clinical isolate 5 incubated […] by microdilution resazurin assay
Assay type: functional
Conditions: Staphylococcus aureus, isolate 5; read-out: MIC
observed property: MIC (µM)
Write the number in µM without appending the unit.

compound="O=C(CCc1ccccc1)c1c(O)cc(O)c2c1OC(c1ccc(O)cc1)CC2 (stereo in doubt; (-)-12)" result_unit=µM test_value=6
compound=COc1cc(O)c(C(=O)CCc2ccc(O)cc2)c(O)c1C/C=C/c1ccc(O)cc1 result_unit=µM test_value=50

Give MIC (Staphylococcus aureus) of the following compound: O=C(CCc1ccccc1)c1c(O)cc(O)c(C/C=C/c2ccc(O)cc2)c1O
3

###

Test system: Staphylococcus aureus
Assay: Antibacterial activity against methicillin resistant Staphylococcus aureus clinical isolate 5 incubated […] by microdilution resazurin assay
Format: functional
Conditions: Staphylococcus aureus, isolate 5; read-out: MIC
observed property: MIC

molecule="O=C(CCc1ccccc1)c1c(O)cc(O)c2c1OC(c1ccc(O)cc1)C(O)C2 (stereo in doubt; (-)-15)" target_entity="Staphylococcus aureus" test_value="25 µM"
molecule=COc1ccc(CCC(=O)c2c(O)cc(O)c3c2O[C@H](c2ccc(O)cc2)CC3)cc1 target_entity="Staphylococcus aureus" test_value="> 50 µM"

Give MIC (Staphylococcus aureus) of the following molecule: COc1ccc(CCC(=O)c2c(O)c3c(c4c2OC(c2ccc(O)cc2)C(C/C=C/c2ccc(O)cc2)C4)OC(c2ccc(O)cc2)C(C/C=C/c2ccc(O)cc2)C3)cc1 (racemic)
> 50 µM

Another: COc1ccc(CCC(=O)c2c(O)c(C/C=C/c3ccc(O)cc3)c(O)c3c2O[C@@H](c2ccc(O)cc2)[C@H](C/C=C/c2ccc(O)cc2)C3)cc1 (racemic)
13 µM

Another: COc1ccc(CCC(=O)c2c(O)cc(O)c(C/C=C/c3ccc(O)cc3)c2O)cc1
13 µM

Another: O=C(/C=C/c1ccccc1)OCC(C/C=C/c1ccc(O)cc1)C(c1ccc(O)cc1)c1c(O)cc(O)c(C(=O)CCc2ccccc2)c1O (racemic)
3 µM

Another: COc1ccc(CCC(=O)c2c(O)c3c(c4c2O[C@@H](c2ccc(O)cc2)[C@H](C/C=C/c2ccc(O)cc2)C4)O[C@@H](c2ccc(O)cc2)[C@H](O)C3)cc1 (racemic)
13 µM

###

Tested on: Staphylococcus aureus
Test: Antibacterial activity against methicillin resistant Staphylococcus aureus clinical isolate 1 incubated […] by microdilution resazurin assay
Format: functional
Collected MIC values appear next to each entry.
Write the number in µM without appending the unit.

The following molecules have reported results that may help.
molecule="O=C(CCc1ccccc1)c1c(O)cc(O)c2c1OC(c1ccc(O)cc1)C(O)C2 (stereo in doubt; (+)-15)" result_unit=µM test_value=25
molecule="O=C(CCc1ccccc1)c1c(O)cc(O)c2c1OC(c1ccc(O)cc1)CC2 (stereo in doubt; (-)-12)" result_unit=µM test_value=6

Would you kindly look at the next entry?
Report MIC for O=C(CCc1ccccc1)c1c(O)cc(O)c2c1OC(c1ccc(O)cc1)CC2 (single isomer, unassigned; (+)) please.
13

###

Collected MIC values appear next to each entry.
Test system: Staphylococcus aureus
Assay: Antibacterial activity against methicillin resistant Staphylococcus aureus clinical isolate 9 incubated […] by microdilution resazurin assay
Type: functional
Details: Staphylococcus aureus, isolate 9; read-out: MIC

The following molecules have reported results that may help.
molecule="COc1cc(O)c(C(=O)CCc2ccc(O)cc2)c2c1CCC(c1ccc(O)cc1)O2 (stereo not given)" test_value="> 50 µM"
molecule=COc1ccc(CCC(=O)c2c(O)cc(O)c3c2O[C@@H](c2ccc(O)cc2)CC3)cc1 test_value="13 µM"

Report MIC for O=C(CCc1ccccc1)c1c(O)cc2c(c1O)CC(O)C(c1ccc(O)cc1)O2 (stereo in doubt; (-)-17) please.
> 50 µM

Another: COc1ccc(CCC(=O)c2c(O)c3c(c4c2OC(c2ccc(O)cc2)C(C/C=C/c2ccc(O)cc2)C4)OC(c2ccc(O)cc2)C(C/C=C/c2ccc(O)cc2)C3)cc1 (racemic)
> 50 µM

Another: O=C(CCc1ccccc1)c1c(O)c2c(c3c1OC(c1ccc(O)cc1)C(C/C=C/c1ccc(O)cc1)C3)OC(c1ccc(O)cc1)C(C/C=C/c1ccc(O)cc1)C2 (racemic; form 1)
> 50 µM

###

System: Staphylococcus aureus
Experiment: Antibacterial activity against methicillin resistant Staphylococcus aureus clinical isolate 9 incubated […] by microdilution resazurin assay
Type: functional
Details: Staphylococcus aureus, isolate 9; read-out: MIC
observed property: MIC (µM)
Write the number in µM without appending the unit.

compound="O=C(/C=C/c1ccccc1)OCC(C/C=C/c1ccc(O)cc1)C(c1ccc(O)cc1)c1c(O)cc(O)c(C(=O)CCc2ccccc2)c1O (racemic)" result_unit=µM test_value=25
compound="COc1ccc(CCC(=O)c2c(O)c3c(c4c2O[C@@H](c2ccc(O)cc2)[C@H](C/C=C/c2ccc(O)cc2)C4)O[C@@H](c2ccc(O)cc2)[C@H](O)C3)cc1 (racemic)" result_unit=µM test_value=25
compound="O=C(CCc1ccccc1)c1c(O)c2c(c3c1O[C@@H](c1ccc(O)cc1)[C@H](C/C=C/c1ccc(O)cc1)C3)O[C@@H](c1ccc(O)cc1)[C@H](O)C2 (racemic)" result_unit=µM test_value=6
compound="COc1ccc(CCC(=O)c2c(O)c(C/C=C/c3ccc(O)cc3)c(O)c3c2O[C@@H](c2ccc(O)cc2)[C@H](C/C=C/c2ccc(O)cc2)C3)cc1 (racemic)" result_unit=µM test_value=13
compound="O=C(CCc1ccccc1)c1c(O)cc(O)c2c1OC(c1ccc(O)cc1)CC2 (stereo in doubt; (-)-12)" result_unit=µM test_value=13
compound=O=C(CCc1ccccc1)c1c(O)cc(O)c(C/C=C/c2ccc(O)cc2)c1O result_unit=µM test_value=3
compound="COc1ccc(CCC(=O)c2c(O)cc(O)c3c2OC(c2ccc(O)cc2)C(O)C3)cc1 (stereo in doubt; (-)-16)" result_unit=µM test_value=50
compound=COc1ccc(CCC(=O)c2c(O)cc(O)c(C/C=C/c3ccc(O)cc3)c2O)cc1 result_unit=µM test_value=25

Report MIC for O=C(CCc1ccccc1)c1c(O)cc(O)c2c1OC(c1ccc(O)cc1)C(O)C2 (stereo in doubt; (-)-15) please.
50

Another: O=C(CCc1ccc(O)cc1)c1c(O)cc(O)c2c1O[C@H](c1ccc(O)cc1)[C@@H](C/C=C/c1ccc(O)cc1)C2
3

Another: O=C(CCc1ccc(O)cc1)c1c(O)cc(O)c2c1O[C@@H](c1ccc(O)cc1)[C@H](C/C=C/c1ccc(O)cc1)C2
13

###

Tested on: Staphylococcus aureus
Assay: Antibacterial activity against methicillin resistant Staphylococcus aureus clinical isolate 4 incubated for 7 to 14 days by microdilution resazurin assay
Collected MIC values appear next to each entry.

molecule="COc1cc(O)c(C(=O)CCc2ccc(O)cc2)c2c1CCC(c1ccc(O)cc1)O2 (stereo not drawn)" observed_property=MIC test_value="> 50 µM"
molecule="COc1ccc(CCC(=O)c2c(O)c3c(c4c2O[C@@H](c2ccc(O)cc2)[C@H](C/C=C/c2ccc(O)cc2)C4)O[C@@H](c2ccc(O)cc2)[C@H](O)C3)cc1 (racemic)" observed_property=MIC test_value="50 µM"
molecule="O=C(CCc1ccccc1)c1c(O)cc2c(c1O)C[C@@H](C/C=C/c1ccc(O)cc1)[C@H](c1ccc(O)cc1)O2 (racemic)" observed_property=MIC test_value="> 50 µM"
molecule="COc1ccc(CCC(=O)c2c(O)c3c(c4c2OC(c2ccc(O)cc2)C(C/C=C/c2ccc(O)cc2)C4)OC(c2ccc(O)cc2)C(C/C=C/c2ccc(O)cc2)C3)cc1 (racemic)" observed_property=MIC test_value="> 50 µM"
molecule=COc1ccc(CCC(=O)c2c(O)cc(O)c(C/C=C/c3ccc(O)cc3)c2O)cc1 observed_property=MIC test_value="13 µM"

Report MIC for O=C(CCc1ccccc1)c1c(O)c2c(c3c1OC(c1ccc(O)cc1)C(C/C=C/c1ccc(O)cc1)C3)OC(c1ccc(O)cc1)C(C/C=C/c1ccc(O)cc1)C2 (racemic; form 1) please.
> 50 µM

Another: O=C(CCc1ccc(O)cc1)c1c(O)cc(O)c2c1O[C@H](c1ccc(O)cc1)[C@@H](C/C=C/c1ccc(O)cc1)C2
3 µM

Another: O=C(CCc1ccc(O)cc1)c1c(O)cc(O)c2c1O[C@@H](c1ccc(O)cc1)[C@H](C/C=C/c1ccc(O)cc1)C2
25 µM

Another: COc1ccc(CCC(=O)c2c(O)c(C/C=C/c3ccc(O)cc3)c(O)c3c2O[C@@H](c2ccc(O)cc2)[C@H](C/C=C/c2ccc(O)cc2)C3)cc1 (racemic)
13 µM

Another: O=C(CCc1ccccc1)c1c(O)c2c(c3c1O[C@@H](c1ccc(O)cc1)[C@H](C/C=C/c1ccc(O)cc1)C3)O[C@@H](c1ccc(O)cc1)[C@H](O)C2 (racemic)
6 µM

Another: COc1ccc(CCC(=O)c2c(O)cc(O)c3c2O[C@@H](c2ccc(O)cc2)CC3)cc1
25 µM

Another: O=C(CCc1ccccc1)c1c(O)cc2c(c1O)CC(O)C(c1ccc(O)cc1)O2 (stereo in doubt; (-)-17)
50 µM

Another: O=C(CCc1ccccc1)c1c(O)cc(O)c2c1OC(c1ccc(O)cc1)C(O)C2 (stereo in doubt; (-)-15)
50 µM

Another: COc1ccc(CCC(=O)c2c(O)cc(O)c(C(c3ccc(O)cc3)C(C/C=C/c3ccc(O)cc3)COC(=O)/C=C/c3ccccc3)c2O)cc1 (racemic)
> 50 µM

Another: COc1ccc(CCC(=O)c2c(O)cc(O)c3c2O[C@H](c2ccc(O)cc2)CC3)cc1
> 50 µM

Another: COc1cc(O)c(C(=O)CCc2ccc(O)cc2)c(O)c1C/C=C/c1ccc(O)cc1
50 µM

Another: O=C(/C=C/c1ccccc1)OCC(C/C=C/c1ccc(O)cc1)C(c1ccc(O)cc1)c1c(O)cc(O)c(C(=O)CCc2ccccc2)c1O (racemic)
25 µM

Another: O=C(CCc1ccccc1)c1c(O)cc(O)c(C/C=C/c2ccc(O)cc2)c1O
6 µM
